# assayed target: 15-hydroxyprostaglandin dehydrogenase [NAD(+)] (Homo sapiens) (UniProt P15428)
# Sequence (P15428 whole entry, looked up): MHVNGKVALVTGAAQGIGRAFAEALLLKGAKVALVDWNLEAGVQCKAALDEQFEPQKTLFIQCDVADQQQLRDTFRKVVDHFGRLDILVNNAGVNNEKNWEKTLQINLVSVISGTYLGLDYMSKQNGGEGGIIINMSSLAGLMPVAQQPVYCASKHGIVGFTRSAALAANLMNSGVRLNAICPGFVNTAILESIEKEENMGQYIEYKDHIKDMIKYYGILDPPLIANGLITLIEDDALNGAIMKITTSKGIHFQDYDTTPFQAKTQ
# experiment description: Confirmation qHTS Assay for Inhibitors of HPGD (15-Hydroxyprostaglandin Dehydrogenase)
# condition label: recombinant HPGD, NADH fluorescence, PGE2 substrate
The list shows a part of the results. Calls of active or inactive are those of the source. Calls follow the shape of the full dose curve.
measure name: Potency

| smiles record | assayed target | result value |
| --- | --- | --- |
| CC1CCN(C(=O)c2cc3nc(C4CC4)cc(C(F)(F)F)n3n2)CC1 | 15-hydroxyprostaglandin dehydrogenase [NAD(+)] (Homo sapiens) (UniProt P15428) | 3980 nM (active) |
| Cc1ccnc(-n2sc3ccccc3c2=O)n1 | 15-hydroxyprostaglandin dehydrogenase [NAD(+)] (Homo sapiens) (UniProt P15428) | 3160 nM (active) |
| O=C(c1ccc(CSc2ccccc2)cc1)N1CCCCCC1 | 15-hydroxyprostaglandin dehydrogenase [NAD(+)] (Homo sapiens) (UniProt P15428) | 224 nM (active) |
| CC1CCN(C(=O)c2ccc(CSc3ccc(Cl)cc3)cc2)CC1 | 15-hydroxyprostaglandin dehydrogenase [NAD(+)] (Homo sapiens) (UniProt P15428) | 631 nM (active) |

Where do the numbers come from? From PubChem BioAssay AID2429.
